Assay: physchem
Conditions: 25 °C, organic solvent or mixture
readout: solubility

smiles_input=C/C=C(\C)C(=O)O[C@H]1C[C@@H](OC(C)=O)[C@@]2(C(=O)OC)CO[C@H]3[C@@H](O)[C@@](C)([C@]45O[C@@]4(C)[C@H]4C[C@@H]5O[C@@H]5OC=C[C@@]54O)[C@H]4[C@]1(CO[C@]4(O)C(=O)OC)[C@@H]32 result="≥ 30 mg/mL"

* * *

Assay: Solubility in good solvent
Conditions: ethanol, 60 °C, organic solvent or mixture
readout: solubility

smiles_input=CC(=O)O[C@@]12CO[C@@H]1C[C@H](O)[C@@]1(C)C(=O)[C@H](O)C3=C(C)[C@@H](OC(=O)[C@H](O)[C@@H](NC(=O)OC(C)(C)C)c4ccccc4)C[C@@](O)([C@@H](OC(=O)c4ccccc4)[C@H]21)C3(C)C readout=solubility result="≥ 20 mg/mL"
